Assay: Toxicity against human MAGI cells incubated for 48 hrs by MTS assay
Format: cell-based
Conditions: read-out: TC50
Test readout: CC50 at 48 h

INSERT INTO results (mol, readout_value) VALUES
  ('c1ccc(Cc2cn[nH]c2C2CCN(Cc3ccncc3)CC2)cc1', '> 300 µM');

* * *

Assay: Toxicity against HEK293 cells derived ACTOne-X4 cells
Type: cell-based
Details: human
Test readout: CC50

INSERT INTO results (mol, test_readout, readout_value) VALUES
  ('c1ccc(Cc2cn[nH]c2C2CCN(Cc3ccncc3)CC2)cc1', 'CC50', '> 200 µM');

* * *

Assay: Inhibition of HIV pNL4-3 heterodimeric reverse transcriptase p66/p51 incubated at 37 degC for 1 hr by scintillation counting method
Design: species or system Human immunodeficiency virus
Test readout: IC50 (µM)

INSERT INTO results (mol, readout_value) VALUES
  ('c1ccc(Cc2cn[nH]c2C2CCN(Cc3ccncc3)CC2)cc1', 9);
